Target: ADAM10 (Homo sapiens)
Construct: purchased AnaSpec, Inc. AS-72226
Sequence (O14672 214-748): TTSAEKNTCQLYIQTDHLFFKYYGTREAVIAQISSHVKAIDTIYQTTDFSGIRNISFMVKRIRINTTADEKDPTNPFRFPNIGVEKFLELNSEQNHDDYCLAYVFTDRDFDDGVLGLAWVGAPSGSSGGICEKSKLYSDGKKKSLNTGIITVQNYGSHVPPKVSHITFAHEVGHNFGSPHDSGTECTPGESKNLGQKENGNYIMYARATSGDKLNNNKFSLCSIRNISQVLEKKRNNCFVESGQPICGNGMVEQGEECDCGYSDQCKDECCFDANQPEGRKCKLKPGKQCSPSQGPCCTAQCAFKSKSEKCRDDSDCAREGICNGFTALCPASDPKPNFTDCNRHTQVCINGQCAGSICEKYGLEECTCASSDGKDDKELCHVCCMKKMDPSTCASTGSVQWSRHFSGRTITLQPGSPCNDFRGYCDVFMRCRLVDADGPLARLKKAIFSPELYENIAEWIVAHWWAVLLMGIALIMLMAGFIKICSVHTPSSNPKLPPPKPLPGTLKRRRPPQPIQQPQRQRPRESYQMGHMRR
Test: SensoLyte 520 ADAM10 fluorometric activity assay (AnaSpec AS-72226)
Assay type: biochemical
Details: FRET peptide substrate, ex/em 495/520 nm; read-out: ADAM 10 IC50 class
Method: The inhibitory activities of the compounds of the invention were assessed in 96-well microplate format using MMP1, MMP2, MMP9 and MMP13 colorimetric assay kits and TACE fluorometric assay kit from Enzo Life Sciences, Inc. The inhibitory effect of the compounds of the invention on ADAM10 activity were evaluated in 96-well microplate format using fluorometric assay from AnaSpec, Inc. […]
pIC50: −log10 of the molar value.
Result Type: pIC50

* COc1ccc(Oc2ccc(S(=O)(=O)N3C[C@H]4CC[C@@H]([C@@H]3C(=O)NO)N4C(C)=O)cn2)cc1F [Example 63] | 5.00 to 6.00
* COCCOC(=O)N1[C@@H]2CC[C@H]1[C@H](C(=O)NO)N(S(=O)(=O)c1ccc(Oc3ccc(OC(C)C)cc3)nc1)C2 [Example 30] | < 5.00
* CC(C)(C)C(=O)N1[C@@H]2CC[C@H]1[C@H](C(=O)NO)N(S(=O)(=O)c1ccc(Oc3ccc(OC(F)(F)F)cc3)nc1)C2 [Example 57] | < 5.00
* COCCOC(=O)N1[C@@H]2CC[C@H]1[C@H](C(=O)NO)N(S(=O)(=O)c1ccc(Oc3ccc(Cl)cc3)nc1)C2 [Example 8] | 5.00 to 6.00
* COCCOC(=O)N1[C@@H]2CC[C@H]1[C@H](C(=O)NO)N(S(=O)(=O)c1ccc(Oc3ccc(OC(C)(C)C)cc3)nc1)C2 [Example 31] | < 5.00
* COCCOC(=O)N1[C@@H]2CC[C@H]1[C@H](C(=O)NO)N(S(=O)(=O)c1ccc(Oc3ccc(Cl)c(F)c3)nc1)C2 [Example 9] | 5.00 to 6.00
* COCCOC(=O)N1[C@@H]2CC[C@H]1[C@H](C(=O)NO)N(S(=O)(=O)c1ccc(Oc3ccc(F)cn3)cc1)C2 [Example 7] | 6.00 to 7.30
* COCCOC(=O)N1[C@@H]2CC[C@H]1[C@H](C(=O)NO)N(S(=O)(=O)c1ccc(Oc3ccc(OC)cc3)nc1)C2 [Example 18] | 5.00 to 6.00
* CCOc1ccc(Oc2ccc(S(=O)(=O)N3C[C@H]4CC[C@@H]([C@@H]3C(=O)NO)N4C(=O)OCCOC)cn2)cc1 [Example 29] | < 5.00
* COCCOC(=O)N1[C@@H]2CC[C@H]1[C@H](C(=O)NO)N(S(=O)(=O)c1ccc(Oc3cnn(C)c3)c(F)c1)C2 [Example 41] | 6.00 to 7.30
* COCCOC(=O)N1[C@@H]2CC[C@H]1[C@H](C(=O)NO)N(S(=O)(=O)c1ccc(Oc3ccc(OC)c(F)c3)nc1)C2 [Example 34] | 5.00 to 6.00
* COCCOC(=O)N1[C@@H]2CC[C@H]1[C@H](C(=O)NO)N(S(=O)(=O)c1ccc(Oc3ccc(F)cc3F)nc1)C2 [Example 21] | < 5.00
* O=C(NO)[C@H]1[C@@H]2CC[C@H](CN1S(=O)(=O)c1ccc(Oc3ccc(OC(F)(F)F)cc3)nc1)N2C(=O)N1CCOCC1 [Example 70] | < 5.00
* CC(=O)N1[C@@H]2CC[C@H]1[C@H](C(=O)NO)N(S(=O)(=O)c1ccc(Oc3ccc(F)cc3)nc1)C2 [Example 53] | < 5.00
